System: HEK-293T
protocol: Multiplex assay against HEK293T
Format: toxicity, cell-based
conditions: human, 12 h, 1 µM, compound concentration 1 uM, replicate 1
We begin with a simple list: items and their reported Population Healthy Nuclei (%).
measure: Population Healthy Nuclei (%)

INSERT INTO assay_data (molecule, readout_value) VALUES
  ('CCCn1c(=O)c2[nH]c(C3CCCC3)nc2n(CCC)c1=O', 79),
  ('COc1cc(C(=O)N(CCCc2ccccc2)Cc2ccc(CC(=O)O)cc2)cc(OC)c1C', 82),
  ('O=C1COc2nccc(-c3ccccc3F)c2CN1Cc1cc(C(F)(F)F)cc(C(F)(F)F)c1', 80),
  ('CC(=O)NCCc1c(Cc2ccccc2)[nH]c2ccccc12 [LUZINDOLE]', 79),
  ('C[C@H]1[C@H]2CC[C@H]3[C@@H]4CC=C5C[C@@H](N(C)C)CC[C@]5(C)[C@H]4CC[C@]23CN1C [CONESSINE]', 78),
  ('CNC[C@H](O)c1ccc(O)c(O)c1 [EPINEPHRINE]', 81),
  ('Cc1ccc(-c2ccc(F)cc2COc2ccc(CCC(=O)O)cc2)cc1', 82),
  ('Cc1nc2ccc(Oc3ccc(F)cc3)cc2c(=O)n1C[C@H]1CCCN(C(C)C)C1.Cl', 80),
  ('N[C@@]1(C(=O)O)CO[C@H]2[C@H](C(=O)O)[C@H]21 [LY-379268]', 81),
  ('O=C(NCCO)c1cccc(-c2cc(Nc3ccc(OC(F)(F)F)cc3)ncn2)c1', 78),
  ('COc1c(C)cc(NC(=O)c2nn(Cc3ccc(F)cc3)c3c2CN(C(=O)c2ccc[nH]2)C[C@]3(C)C(N)=O)cc1C', 79),
  ('COc1cc(NC(=O)CCN2CCC(OC(=O)Nc3ccccc3-c3ccccc3)CC2)c(Cl)cc1CNC[C@H](O)c1ccc(O)c2[nH]c(=O)ccc12 [BATEFENTEROL]', 81),
  ('Cc1ccccc1C(=O)Nc1ccc(C(=O)N2CCCC(N(C)C)c3ccccc32)cc1.Cl (stereo not drawn)', 80);

====

Tested on: Fibroblast
protocol: Multiplex assay against human fibroblast
Type: toxicity, cell-based
conditions: 24 h, 10 µM, compound concentration 10 uM, replicate 1
Below is a list of entries, each paired with its recorded Population Healthy Nuclei (%) value.
measure: Population Healthy Nuclei (%)

INSERT INTO measurements (compound, readout_value) VALUES
  ('CSc1ccccc1N1CCN(CCCCCC(=O)NC2CCCc3ccccc32)CC1.Cl (centres undefined)', 66),
  ('COc1cc(C(=O)N(CCCc2ccccc2)Cc2ccc(CC(=O)O)cc2)cc(OC)c1C', 76),
  ('CN1CCN(c2nc3cc(C(F)(F)F)ccc3n3cccc23)CC1.O=C(O)/C=C\C(=O)O.O=C(O)/C=C\C(=O)O', 64),
  ('O=C1COc2nccc(-c3ccccc3F)c2CN1Cc1cc(C(F)(F)F)cc(C(F)(F)F)c1', 71);

====

Tested on: U2OS
protocol: Multiplex assay against U2OS
Format: toxicity, cell-based
conditions: human, 24 h, 10 µM, compound concentration 10 uM, replicate 1
Recorded measurements of Population Healthy Nuclei (%), one per entry
measure: Population Healthy Nuclei (%)

INSERT INTO measurements (compound, measure, value_units, readout_value) VALUES
  ('CCCN1CCC[C@@H]2Cc3n[nH]cc3C[C@H]21.Cl [QUINPIROLE HYDROCHLORIDE]', 'Population Healthy Nuclei (%)', '%', 80),
  ('c1cc(OCCCN2CCCCC2)ccc1CN1CCCCC1 [JNJ-5207852]', 'Population Healthy Nuclei (%)', '%', 62),
  ('Cl.Clc1ccc2nsnc2c1NC1=NCCN1 [TIZANIDINE HYDROCHLORIDE]', 'Population Healthy Nuclei (%)', '%', 62);

Provenance of the data: ChEMBL document CHEMBL5058577
